Tested on: Staphylococcus aureus
Test summary: Antibacterial activity against methicillin-resistant Staphylococcus aureus G1 measured after overnight incubation by broth double-dilution method
Type: functional
# MIC listing for each entry below

Use the examples below as a reference point.
CC(C)Cn1c(=O)c2ccccc2[s+]1[O-] (centres undefined)	> 125 µg/mL
CCCCCCCCn1sc2ccccc2c1=O	≤ 0.25 µg/mL

Req: Please report the recorded MIC for O=c1c2ccccc2[s+]([O-])n1C1CCCCCCC1 (centres undefined) .
Resp: > 125 µg/mL

Req: Would you mind telling me what MIC value was observed for CC(C)CCn1c(=O)c2ccccc2[s+]1[O-] (centres undefined) ?
Resp: > 125 µg/mL

###

Tested on: Mycolicibacterium smegmatis
Test summary: Antibacterial activity against Mycobacterium smegmatis MC2-155 measured after overnight incubation by broth double-dilution method
Format: functional
Condition details: str. MC2 155
Sorting guide: entries reporting MIC beneath 4 µg/mL go in the 1.0 pile, the rest go in the 0.0 pile.

Req: Strictly below 4 µg/mL in MIC? CC(C)CCn1c(=O)c2ccccc2[s+]1[O-] (centres undefined)
Resp: 0.0

Req: Hello, is MIC of the following compound strictly smaller than 4 µg/mL? "CC(C)c1ccc(-n2sc3ccccc3c2=O)cc1"
Resp: 1.0

Req: Hello, is MIC of the following compound strictly smaller than 4 µg/mL? "O=c1c2ccccc2sn1C1CCCCC1"
Resp: 1.0

Req: Quick check: does "CCCCCCn1sc2ccccc2c1=O" have MIC under 4 µg/mL?
Resp: 1.0

Req: Is MIC of "O=c1c2ccccc2sn1-c1ccc(F)cc1" strictly below 4 µg/mL?
Resp: 1.0

Req: Determine whether this compound shows MIC lower than 4 µg/mL (ties excluded): NCC[C@H](O)C(=O)N[C@@H]1C[C@H](N)[C@@H](O[C@H]2O[C@H](CN)[C@@H](O)[C@H](O)[C@H]2O)[C@H](O)[C@H]1O[C@H]1O[C@H](CO)[C@@H](O)[C@H](N)[C@H]1O [AMIKACIN]
Resp: 1.0

Req: Would you kindly verify if MIC of "O=c1c2ccccc2sn1C1CCCC1" is strictly less than 4 µg/mL?
Resp: 1.0

Req: Say whether its MIC is strictly beneath 4 µg/mL. Entry: CC(C)Cn1c(=O)c2ccccc2[s+]1[O-] (centres undefined)
Resp: 0.0

Req: Decide: MIC of "CC(C)c1cccc(-n2sc3ccccc3c2=O)c1" strictly below 4 µg/mL?
Resp: 1.0

Req: Problem: For the compound "O=c1c2ccccc2sn1-c1ccc(Br)cc1" , is MIC under 4 µg/mL?
Resp: 1.0

Req: Consider "CCCCCCCCCCCCn1sc2ccccc2c1=O" . Does its MIC lie strictly below 4 µg/mL?
Resp: 0.0

Req: # check: MIC < 4 µg/mL for "O=c1c2ccccc2sn1-c1ccccn1"
Resp: 0.0

Req: I wonder whether O=c1c2ccccc2[se]n1-c1ccccc1 [EBSELEN] has MIC below 4 µg/mL. Can you tell?
Resp: 0.0

Req: Strictly below 4 µg/mL: is that where MIC of O=c1c2ccccc2[s+]([O-])n1C1CCCCCCC1 (centres undefined) sits?
Resp: 0.0

Req: Answer whether the compound "O=c1c2ccccc2sn1-c1cccc2ccccc12" has MIC strictly less than 4 µg/mL
Resp: 1.0

Req: Hi there! Is MIC for "CCCCCCCCn1sc2ccccc2c1=O" below 4 µg/mL, do you know?
Resp: 1.0
